- target system: human MC4R (Homo sapiens, UniProt P32245)
- Construct: host or cells: HEK-293 cells stably expressing the GScAMP22F split-luciferase cAMP sensor and hMC4R, G418 selection
- Sequence (P32245 whole entry): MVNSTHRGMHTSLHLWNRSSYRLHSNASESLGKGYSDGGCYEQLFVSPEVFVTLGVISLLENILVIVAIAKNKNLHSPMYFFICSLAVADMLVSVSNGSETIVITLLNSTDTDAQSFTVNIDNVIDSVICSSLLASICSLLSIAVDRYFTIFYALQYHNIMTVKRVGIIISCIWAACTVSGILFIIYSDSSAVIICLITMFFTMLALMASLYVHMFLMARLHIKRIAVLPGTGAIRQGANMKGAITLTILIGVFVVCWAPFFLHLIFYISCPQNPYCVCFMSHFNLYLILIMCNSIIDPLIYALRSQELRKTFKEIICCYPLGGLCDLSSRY
- assay text: split-luciferase cAMP sensor assay, agonist mode (measurement window 1), hMC4R
- Type: cell-based
Positions of bridges follow the written chain, without caps; N, C: chain ends. Non-standard residues stand in square brackets, D forms with d. Residues, ends and D or L forms follow the SMILES beside them. Nle = CCCC[C@H](N)C(=O)O
Listed here are compounds together with their documented MC4R selectivity vs MC3R.
Write no unit; give the number alone.

Examples with their reported MC4R selectivity vs MC3R follow.
| compound | experimental value |
| --- | --- |
| CC(=O)N[C@@H](CCCNC(=N)N)C(=O)N[C@H]1CSSC[C@@H](C(N)=O)NC(=O)[C@@H](Cc2c[nH]c3ccccc23)NC(=O)[C@H](CCCNC(=N)N)NC(=O)[C@@H](Cc2c[nH]c3ccccc23)NC(=O)[C@H](CCCNC(=N)N)NC(=O)[C@@H](C)NC1=O [CTX-1275] (Ac-RC[dA]R[dW]R[dW]C-NH2; disulfide 2-8 (inferred)) | 0.27 |
| CCCC[C@H](NC(=O)[C@H](CCCNC(=N)N)NC(C)=O)C(=O)N[C@H]1CSSC[C@@H](C(N)=O)NC(=O)[C@H](Cc2c[nH]c3ccccc23)NC(=O)[C@H](CCCNC(=N)N)NC(=O)[C@@H](Cc2ccc(OC)cc2)NC(=O)[C@H](CCCNC(=N)N)NC1=O [CTX-1614] (Ac-R[Nle]CR[dY](Me)RWC-NH2; disulfide 3-8 (inferred)) | 1.89 |

Report measured MC4R selectivity vs MC3R on human MC4R (Homo sapiens, UniProt P32245); entry: COc1ccc(C[C@H]2NC(=O)[C@H](CCCNC(=N)N)NC(=O)[C@@H](C)NC(=O)[C@@H](NC(=O)[C@H](CCCNC(=N)N)NC(C)=O)CSSC[C@@H](C(N)=O)NC(=O)[C@@H](Cc3c[nH]c4ccccc34)NC(=O)[C@H](CCCNC(=N)N)NC2=O)cc1 [CTX-1238] (Ac-RC[dA]R[dY](Me)R[dW]C-NH2; disulfide 2-8 (inferred))
0.49
